# Test system: Mycobacterium smegmatis mc^2 155
# EXPERIMENT DESCRIPTION: microbe, parasite or virus in culture
# Type: cell-based
# CONDITION SET: Mycolicibacterium smegmatis, MC^2155, 48 h
RECORDED METRIC: MIC
Report the figure along with its unit, number first.

Take a look at these entries with their results.
{"SMILES REPR": "CCN(CC)c1ccc2c(C)cc(=O)oc2c1", "DATA VALUE": "70.2 µM"}
{"SMILES REPR": "O=c1ccc2ccc(O)cc2o1", "DATA VALUE": "46.2 µM"}

Problem: State the recorded MIC for this entry: O=c1ccc2cc(O)c(O)cc2o1
Result: 48.2 µM

Problem: State the recorded MIC for this entry: O=c1ccc2ccc(O)c(O)c2o1
Result: 48.2 µM
